Listed next: entries and their corresponding melting point.
# value in °C; strip the unit string

# count of solved cases: 3
>>> measurement("O=c1c2c([nH]n1-c1ccc(S(=O)(=O)N3CCCC3)cn1)CSC2")
152
>>> measurement("CCN(CC)S(=O)(=O)c1ccc(-n2[nH]c3c(c2=O)CSC3)nc1")
192
>>> measurement("CCN(c1ccccc1)S(=O)(=O)c1ccc(-n2[nH]c3c(c2=O)CSC3)nc1")
208

// next item, melting point requested
So for O=c1c2c([nH]n1-c1ccccn1)CSC2 , the logged melting point turned out to be 152

###

# System: VEGF
# experiment_description: Measurement of the secretion of VEGF by Hep3B hepatocytes (ELISA)
# Type: cell-based
# reported_conditions: Homo sapiens, supernatant of Hep3B cells, 18 hours under normoxia, concentration that produces 50% of the maximum response of this same compound
endpoint_name: EC50 (nM)
# value in nM; strip the unit string

>>> measurement("CC(C)(C)OC(=O)c1ccc(-n2[nH]c3c(c2=O)CSC3)nc1")
1800
>>> measurement("CN(C(C)(C)C)S(=O)(=O)c1ccc(-n2nc3c(c2O)CSC3)nc1")
2000

EC50 of CCN(c1ccccc1)S(=O)(=O)c1ccc(-n2[nH]c3c(c2=O)CN(C(=O)OC(C)(C)C)CC3)nc1 , assay on VEGF, is 1000

EC50 of O=c1c2c([nH]n1-c1ccccn1)CSC2 , assay on VEGF, is 3000

EC50 of CC(C)(C)NS(=O)(=O)c1ccc(-n2[nH]c3c(c2=O)CSC3)nc1 , assay on VEGF, is 400

EC50 of O=c1c2c([nH]n1-c1ccc(S(=O)(=O)N3CCCC3)cn1)CSC2 , assay on VEGF, is 3000

EC50 of O=c1c2c([nH]n1-c1ccc(S(=O)(=O)NCc3ccco3)cn1)CSC2 , assay on VEGF, is 2400

EC50 of COc1ccnc(-n2[nH]c3c(c2=O)CSC3)c1 , assay on VEGF, is 3100

EC50 of CCN(c1ccccc1)S(=O)(=O)c1ccc(-n2[nH]c3c(c2=O)COCC3)nc1 , assay on VEGF, is 2500

EC50 of CCN(c1ccccc1)S(=O)(=O)c1ccc(-n2[nH]c3c(c2=O)SCCC3)nc1 , assay on VEGF, is 500

EC50 of CCN(c1ccccc1)S(=O)(=O)c1ccc(-n2[nH]c3c(c2=O)CSC3)nc1 , assay on VEGF, is 660

EC50 of O=c1c2c([nH]n1-c1ccc(S(=O)(=O)NC3CC3)cn1)CSC2 , assay on VEGF, is 3000

EC50 of CCc1ccnc(-n2[nH]c3c(c2=O)CSC3)c1 , assay on VEGF, is 2800

EC50 of CCN(c1ccccc1)S(=O)(=O)c1ccc(-n2nc3c(c2O)N(Cc2ccccc2)C(=O)CC3)nc1 , assay on VEGF, is 1100

EC50 of CCN(C(C)(C)C)S(=O)(=O)c1ccc(-n2nc3c(c2O)CSC3)nc1 , assay on VEGF, is 3200

EC50 of O=c1c2c([nH]n1-c1ccc(S(=O)(=O)NC3CCCC3)cn1)CSC2 , assay on VEGF, is 900

EC50 of CC(C)NS(=O)(=O)c1ccc(-n2[nH]c3c(c2=O)CSC3)nc1 , assay on VEGF, is 2900

EC50 of O=c1c2c([nH]n1-c1ccc(S(=O)(=O)N3CCCCCC3)cn1)CSC2 , assay on VEGF, is 1300

Sourced from patent US8697731B2
